Sourced from the RepoRT retention time repository (doi:10.1021/acs.analchem.2c02893)

experiment notes: RP, Thermo Scientific Acclaim RSLC 120 C18, 100 × 2.1 mm, 2.2 µm, 30 °C, 0.2 mL/min, estimated dead time 1.1 min; A: 90% water + 10% methanol + 0.01% formic acid + 5 mM ammonium formate, pH 3.61; B: methanol + 0.01% formic acid + 5 mM ammonium formate, pH 3.61; gradient (min/%B) 0/1 1/1 2/39 13/99.9 15/99.9 15.1/1 20.1/1
condition: stereoisomer not certain
measured attribute: LC retention time (min)

compound: O=C(NC(=O)c1c(F)cccc1F)Nc1ccc(Cl)c(Oc2ncc(C(F)(F)F)cc2Cl)c1
measured attribute: LC retention time
reported value: 12.7
//
compound: COc1ccc(C(=CC(=O)N2CCOCC2)c2ccc(Cl)cc2)cc1OC
measured attribute: LC retention time
reported value: 9.22
//
compound: CCCCCn1cc(C(=O)c2ccc(F)c3ccccc23)c2ccccc21
measured attribute: LC retention time
reported value: 12.8
//
compound: CCN(CC)C(C)C(=O)c1ccccc1 (centres undefined)
measured attribute: LC retention time
reported value: 4.11
//
compound: CCN1CCN(C(=O)NC(C(=O)NC2C(=O)N3C(C(=O)O)=C(CSc4nnnn4C)CSC23)c2ccc(O)cc2)C(=O)C1=O (centres undefined)
measured attribute: LC retention time
reported value: 4.36
//
compound: CCCCOC(=O)C(C)Oc1ccc(Oc2ccc(C(F)(F)F)cn2)cc1 (centres undefined)
measured attribute: LC retention time
reported value: 12
//
compound: COc1ccc2c3c([nH]c2c1)C(C)=NCC3
measured attribute: LC retention time
reported value: 5.06
//
compound: O=C(O)CCCO
measured attribute: LC retention time
reported value: 1.95
//
compound: OCCOCCN1CCN(C2=Nc3ccccc3Sc3ccccc32)CC1
measured attribute: LC retention time
reported value: 7.26

* * *

Measured LC retention time by item
experiment notes: RP, Thermo Scientific Acclaim RSLC 120 C18, 100 × 2.1 mm, 2.2 µm, 30 °C, 0.2 mL/min, estimated dead time 1.1 min; A: 90% water + 10% methanol + 0.01% formic acid + 5 mM ammonium formate, pH 3.61; B: methanol + 0.01% formic acid + 5 mM ammonium formate, pH 3.61; gradient (min/%B) 0/1 1/1 2/39 13/99.9 15/99.9 15.1/1 20.1/1
condition: stereoisomer not certain

molecule: CCC1=C(C)CN(C(=O)NCCc2ccc(S(=O)(=O)NC(=O)NC3CCC(C)CC3)cc2)C1=O (centres undefined) [Glimepiride]
uom: min
LC retention time: 10.7
--
molecule: CC(CN1CCN(CCOCCO)CC1)CN1c2ccccc2Sc2ccccc21 (centres undefined) [Dixyrazine]
uom: min
LC retention time: 9.08
--
molecule: CN(C)CCOC(C)(c1ccccc1)c1ccccn1 (centres undefined) [Doxylamine]
uom: min
LC retention time: 5.18
--
molecule: CC(C)(C)C(O)(CCc1ccc(Cl)cc1)Cn1cncn1 (centres undefined) [Tebuconazole]
uom: min
LC retention time: 10.9
--
molecule: COc1cc2c(cc1OC)C(=O)C(CC1CCN(Cc3ccccc3)CC1)C2 (centres undefined) [Donepezil]
uom: min
LC retention time: 5.81
--
molecule: Clc1ccc2c(c1)C(N1CCNCC1)=Nc1ccccc1O2 [Amoxapine]
uom: min
LC retention time: 7.64
--
molecule: Nc1nc2ccc(OC(F)(F)F)cc2s1 [Riluzole]
uom: min
LC retention time: 9.12
--
molecule: Cc1oc(C)c(C(=O)Nc2ccccc2)c1C [Methfuroxam]
uom: min
LC retention time: 8.79
--
molecule: CCCN(CCC)c1c([N+](=O)[O-])cc(S(N)(=O)=O)cc1[N+](=O)[O-] [Oryzalin]
uom: min
LC retention time: 10.3
--
molecule: C=CC(=O)NC(C)(C)CS(=O)(=O)O [2-Acrylamido-2-methylpropane sulfonic acid (AMPS)]
uom: min
LC retention time: 2.8
--
molecule: Oc1ccc2c3c1OC1C(O)CCC4(O)C(C2)N(CC2CCC2)CCC314 (centres undefined) [Nalbuphine]
uom: min
LC retention time: 4.17
--
molecule: CN(C)CCC=C1c2ccccc2C(C)(C)c2ccccc21 [Melitracen]
uom: min
LC retention time: 8.79
--
molecule: Nc1cc(-c2ccncc2)c[nH]c1=O [Amrinone]
uom: min
LC retention time: 2.88
--
molecule: COP(=O)(OC)OC=C(Cl)Cl [Dichlorvos]
uom: min
LC retention time: 7
--
molecule: CC(CCCNCCO)Nc1ccnc2cc(Cl)ccc12 (centres undefined) [Chloroquine-Desethylhydroxy]
uom: min
LC retention time: 3.88
--
molecule: CCCc1cc(=O)[nH]c(=S)[nH]1 [Propylthiouracil]
uom: min
LC retention time: 4.51
--
molecule: COc1cccc(C2(O)CCCCC2CN(C)C)c1 (centres undefined) [Tramadol]
uom: min
LC retention time: 4.88
--
molecule: CCOC(=O)C1C(OC(=O)c2ccccc2)CC2CCC1N2C (centres undefined) [Cocaethylene]
uom: min
LC retention time: 5.46
--
molecule: CC(C)(C)C(NC(=O)c1cn(CC2CCCCC2)c2ccccc12)C(N)=O (centres undefined) [ADB-CHMICA]
uom: min
LC retention time: 11.7

* * *

experiment notes: RP, Thermo Scientific Acclaim RSLC 120 C18, 100 × 2.1 mm, 2.2 µm, 30 °C, 0.2 mL/min, estimated dead time 1.1 min; A: 90% water + 10% methanol + 0.01% formic acid + 5 mM ammonium formate, pH 3.61; B: methanol + 0.01% formic acid + 5 mM ammonium formate, pH 3.61; gradient (min/%B) 0/1 1/1 2/39 13/99.9 15/99.9 15.1/1 20.1/1
condition: stereoisomer not certain
Measured LC retention time by item

compound: CN(C)CCCn1c2c(c3ccccc31)CCCCCC2
LC retention time: 9.26 min
//
compound: CCC(=O)OC(OP(=O)(CCCCc1ccccc1)CC(=O)N1CC(C2CCCCC2)CC1C(=O)O)C(C)C (stereo not drawn)
LC retention time: 12.4 min
//
compound: Cn1cnc2c1c(=O)[nH]c(=O)n2C
LC retention time: 3.28 min
//
compound: NC(C(=O)NC1C(=O)N2C(C(=O)O)=C(Cl)CSC12)c1ccccc1 (stereo not drawn)
LC retention time: 4.09 min
//
compound: CCSC(=O)N(CC(C)C)CC(C)C [Butylate]
LC retention time: 12 min
//
compound: CCCCCn1cc(C(=O)NCc2ccccc2)c2ccccc21
LC retention time: 11.2 min
//
compound: CCCCCn1cc(C(=O)c2ccc(OC)cc2)c2ccccc21
LC retention time: 11.8 min
//
compound: Cc1cc2c(OCC(O)CNC(C)C)cccc2[nH]1 (stereo not drawn) [Mepindolol]
LC retention time: 4.44 min
//
compound: CCNC(=O)c1ccc(OC)cc1 [N-ethyl-4-methoxybenzamide]
LC retention time: 5.59 min
//
compound: CCOc1nc2cccc(C(=O)OC(C)OC(=O)OC3CCCCC3)c2n1Cc1ccc(-c2ccccc2-c2nn[nH]n2)cc1 (stereo not drawn)
LC retention time: 12.2 min
//
compound: COCc1cnc(C2=NC(C)(C(C)C)C(=O)N2)c(C(=O)O)c1 (stereo not drawn)
LC retention time: 4.63 min
//
compound: CC(C)OC(=O)C(C)N(C(=O)c1ccccc1)c1ccc(F)c(Cl)c1 (stereo not drawn)
LC retention time: 10.8 min
//
compound: CC(C)N(C(=O)CS(=O)(=O)O)c1ccccc1
LC retention time: 5.46 min
//
compound: CC(C(O)c1ccccc1)N(C)C (stereo not drawn)
LC retention time: 3.73 min
//
compound: CNC(=O)Oc1ccc2c(c1)C1(C)CCN(C)C1N2C (stereo not drawn)
LC retention time: 3.89 min
//
compound: CC(COc1ccccc1)NC(C)C(O)c1ccc(O)cc1 (stereo not drawn)
LC retention time: 5.28 min
//
compound: CC(O)(CS(=O)(=O)c1ccc(F)cc1)C(=O)Nc1ccc(C#N)c(C(F)(F)F)c1 (stereo not drawn) [Bicalutamide]
LC retention time: 8.71 min
//
compound: CCOC(=O)COC(=O)c1cc(Oc2ccc(C(F)(F)F)cc2Cl)ccc1[N+](=O)[O-]
LC retention time: 11.7 min

* * *

experiment notes: RP, Thermo Scientific Acclaim RSLC 120 C18, 100 × 2.1 mm, 2.2 µm, 30 °C, 0.2 mL/min, estimated dead time 1.1 min; A: 90% water + 10% methanol + 0.01% formic acid + 5 mM ammonium formate, pH 3.61; B: methanol + 0.01% formic acid + 5 mM ammonium formate, pH 3.61; gradient (min/%B) 0/1 1/1 2/39 13/99.9 15/99.9 15.1/1 20.1/1
condition: stereoisomer not certain
Measured LC retention time by item

compound: Cc1cccc(C)c1N(C(=O)CCl)C1CCOC1=O (stereo not given)
LC retention time / min: 7

compound: Nc1c2c(nc3ccccc13)CCCC2
LC retention time / min: 4.77

compound: CCCCc1c(C)nc(N(C)C)[nH]c1=O
LC retention time / min: 7.7

compound: CCC(=O)Nc1ccc(Cl)c(Cl)c1
LC retention time / min: 9.38

compound: O=C1Nc2ccc(Cl)cc2C(C#CC2CC2)(C(F)(F)F)O1 (stereo not given)
LC retention time / min: 10.7

compound: NC(=O)c1ccccc1O [Salicylamide]
LC retention time / min: 4.76

compound: CCCC(=O)OC1(C(=O)CCl)C(C)CC2C3CCC4=CC(=O)C=CC4(C)C3(F)C(=O)CC21C (stereo not given) [Clobetasone butyrate]
LC retention time / min: 11.3

compound: CC(Cc1ccccc1)NCCC(c1ccccc1)c1ccccc1 (stereo not given)
LC retention time / min: 8.89

compound: CC1(C)CC1C(=O)NC(=CCCCCSCC(N)C(=O)O)C(=O)O (stereo not given)
LC retention time / min: 4.88

compound: O=c1[nH]c(Cl)c(Cl)cc1Cl
LC retention time / min: 8.96
